Values were extracted from patent US20090030039A1.

# ASSAY TARGET: human CXCR3 (Homo sapiens)
# Construct: expressed in transfected cells; host or cells: CHO cells (membrane preparation)
# Sequence (P49682 1-368): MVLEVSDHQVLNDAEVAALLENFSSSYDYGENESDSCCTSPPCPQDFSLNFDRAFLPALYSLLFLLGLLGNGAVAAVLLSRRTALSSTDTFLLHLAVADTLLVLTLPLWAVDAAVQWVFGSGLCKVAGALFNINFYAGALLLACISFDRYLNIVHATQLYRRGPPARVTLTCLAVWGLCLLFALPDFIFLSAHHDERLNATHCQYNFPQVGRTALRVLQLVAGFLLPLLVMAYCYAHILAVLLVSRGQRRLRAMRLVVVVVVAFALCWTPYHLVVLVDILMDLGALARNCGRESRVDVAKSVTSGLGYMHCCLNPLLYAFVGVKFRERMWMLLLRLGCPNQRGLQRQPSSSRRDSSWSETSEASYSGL
# TEST DETAILS: [35S]GTPγS exchange assay, CXCR3 receptor inhibition (hI-TAC-induced GTPγS-binding)
# Assay type: biochemical
# TEST SETTINGS: -log IC50 (molar) inhibiting 50% of specific I-TAC-induced GTPγS-binding; membranes of human CXCR3-transfected CHO cells; read-out: pIC50 (converted)
Assignment: determine reported IC50 for the given compounds.

[ask] Consider the compound O=C1CCC(c2cccnc2)(C2CCN(Cc3ccc(Cl)c(F)c3)CC2)C(=O)N1 (stereo not drawn) and give its measured IC50.
[reply] 2000 nM

[ask] Recorded IC50 for Cc1cccc(C2(C3CCN(Cc4ccc(Cl)cc4)CC3)CCC(=O)NC2=O)c1 (stereo not drawn) , please?
[reply] 2000 nM

[ask] Need IC50 of COc1cccc(C2(C3CCN(Cc4ccc(Cl)c(Cl)c4)CC3)CCC(=O)NC2=O)c1 (stereo not drawn) , thanks.
[reply] 2000 nM

* * *

# ASSAY TARGET: human CXCR3 (Homo sapiens, UniProt P49682)
# Construct: expressed in transfected cells; host or cells: CHO cells (membrane preparation)
# Sequence (P49682 1-368): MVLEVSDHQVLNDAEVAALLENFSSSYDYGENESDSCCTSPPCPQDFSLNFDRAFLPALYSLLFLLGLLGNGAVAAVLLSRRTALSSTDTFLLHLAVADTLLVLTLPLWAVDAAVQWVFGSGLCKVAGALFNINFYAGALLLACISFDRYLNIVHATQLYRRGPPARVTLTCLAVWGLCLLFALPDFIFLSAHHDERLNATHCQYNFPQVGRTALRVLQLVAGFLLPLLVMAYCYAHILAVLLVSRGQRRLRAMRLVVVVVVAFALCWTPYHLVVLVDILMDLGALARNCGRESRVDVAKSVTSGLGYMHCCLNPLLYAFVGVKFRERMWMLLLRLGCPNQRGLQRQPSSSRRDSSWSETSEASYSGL
# TEST DETAILS: [35S]GTPγS exchange assay, CXCR3 receptor inhibition (hI-TAC-induced GTPγS-binding)
# Format: biochemical
# TEST SETTINGS: -log IC50 (molar) inhibiting 50% of specific I-TAC-induced GTPγS-binding; membranes of human CXCR3-transfected CHO cells; read-out: pIC50 (converted)
METRIC NAME: IC50 (nM)
Write the value in nM as a bare number.

[ask] Looking for the measured IC50 of O=C1CCC(c2ccc(F)cc2F)(C2CCN(Cc3ccc(Br)cc3)CC2)C(=O)N1 (single isomer, unassigned) [Compound 166] , can you help?
[reply] 63.1

[ask] Could you share which IC50 value was measured for O=C1CCC(c2ccccc2)(C2CCN(Cc3ccc(F)c(F)c3)CC2)C(=O)N1 (stereo not drawn) [Compound 47] ?
[reply] 2000

[ask] What value of IC50 has been recorded for this entry: Cl.O=C1CCC(c2ccc(F)cc2F)(C2CCN(Cc3ccc(Cl)c(F)c3)CC2)C(=O)N1 (single isomer, unassigned) [Compound 203]
[reply] 79.4

* * *

# ASSAY TARGET: human CXCR3 (Homo sapiens)
# Construct: expressed in transfected cells; host or cells: CHO cells (membrane preparation)
# TEST DETAILS: [35S]GTPγS exchange assay, CXCR3 receptor inhibition (hI-TAC-induced GTPγS-binding)
# Assay type: biochemical
# TEST SETTINGS: -log IC50 (molar) inhibiting 50% of specific I-TAC-induced GTPγS-binding; membranes of human CXCR3-transfected CHO cells; read-out: pIC50 (converted)
Consider the following compounds; for each one, report its IC50.
Supply the numeric figure in nM, leaving out any unit text.

[ask] Find the recorded IC50 belonging to CC(c1ccc(Br)cc1)N1CCC(C2(c3ccc(F)cc3F)CCC(=O)NC2=O)CC1 (stereo not shown) and report it.
[reply] 158

[ask] Name the reported IC50 value associated with the compound Cl.O=C1CCC(c2ccc(F)cc2F)(C2CCN(Cc3ccc(Br)cc3)CC2)C(=O)N1 (single isomer, unassigned)
[reply] 316

[ask] Entry O=C1CCC(c2ccccc2)(C2CCN(Cc3ccc(Br)cc3F)CC2)C(=O)N1 (stereo not shown) : reported IC50 = ?
[reply] 501
